For each of the compounds below, state its microsomal CLint.
Test: in vitro
Details: female, human, microsomes

Study these solved cases before continuing.
* [2H]c1cc([2H])c(-c2ccc(NC(=O)C3=C(C(=O)O)CCC3)c(F)c2)c([2H])c1OC([2H])([2H])[2H] [Example 2] | 5.8 µL/min/mg
* COc1cccc(-c2ccc(NC(=O)C3=C(C(=O)O)CCC3)c(F)c2)c1 [Example C26, vidofludimus, reference compound] | 6.58 µL/min/mg

Please look at the following compound next.
In plain terms, [2H]C([2H])([2H])Oc1cccc(-c2ccc(NC(=O)C3=C(C(=O)O)CCC3)c(F)c2)c1 [Example 1] has a documented microsomal CLint of 5.02 µL/min/mg

Where do these numbers come from? They come from patent US20240199535A1.
